# experimentNotes: A quantitative high throughput screen for small molecules that induce DNA re-replication in SW480 colon adenocarcinoma cells. Note: nearly all actives have a fitted effect of over 55% in size.
# conditionDescription: Hoechst DNA content imaging, 48 h; series mostly up to 46.1 µM
About 6,200 (1.8%) of roughly 340,000 compounds were called active. Inconclusive results (about 10%) are left out. Calls come from the whole dose curve; as a rule, active = well fitted activation curve with a large enough effect; inconclusive = small, poorly fitted or top-dose-only effect; inactive = no such curve, though single readings can be large or run the other way. Many of the other results were omitted from the sample, so actives are more common in it than they were.
Possible outcomes: active, inactive

INSERT INTO measurements (compound, assignedclass) VALUES
  ('Cc1ccsc1C(=O)OCC(=O)NCCc1ccccc1', 'inactive'),
  ('N#CCCN(C(=O)COC(=O)c1ccc2c(c1)OCCO2)c1ccccc1', 'inactive'),
  ('COc1ccc(CC(=O)N/N=C/c2cc([N+](=O)[O-])cc(Br)c2O)cc1', 'inactive'),
  ('Cc1ccn(CC(=O)N2N=C(C(F)F)CC2(O)C(F)F)n1 (centres undefined)', 'active'),
  ('N#CCc1c[nH]c2ccc([N+](=O)[O-])cc12', 'inactive'),
  ('CN(CCc1ccccc1)C(=O)c1cccc(NC(=O)Cc2cccc(NC(=O)C3CCCN(C(=O)CCc4ccccc4)C3)c2)c1 (centres undefined)', 'inactive'),
  ('Cc1cc(C(=O)N/N=C/c2cc([N+](=O)[O-])cc(C)c2O)n[nH]1', 'inactive'),
  ('O=[N+]([O-])c1cc(Br)c(O)c(/C=N/Nc2nc3ccccc3s2)c1', 'active'),
  ('O=C(CSc1cccc[n+]1[O-])c1ccc(-c2ccccc2)cc1', 'active');

----------
# experimentNotes: A quantitative high throughput screen for small molecules that induce DNA re-replication in SW480 colon adenocarcinoma cells. Note: nearly all actives have a fitted effect of over 55% in size.
# conditionDescription: Hoechst DNA content imaging, 48 h; series mostly up to 46.1 µM
Screen size: about 340,000 compounds; about 6,200 (1.8%) were called active. Another 10% or so got no clear call; they are omitted. Calls come from the whole dose curve; as a rule, active = well fitted activation curve with a large enough effect; inconclusive = small, poorly fitted or top-dose-only effect; inactive = no such curve, though single readings can be large or run the other way. For the sample, actives were picked, then their nearest neighbours and some compounds at random.
Outcomes: active, inactive

INSERT INTO results (compound, assignedclass) VALUES
  ('C=CCn1c(SCc2c(C)noc2C)nc2sc3c(c2c1=O)CCC(C)C3 (stereo not drawn)', 'active'),
  ('CC(C)c1nc2ccc(C(=O)O)cc2[nH]1', 'inactive'),
  ('CCN([C@H](CO)C(C)C)S(=O)(=O)c1ccccc1Br', 'inactive'),
  ('CCOC(=O)c1cccc(NS(=O)(=O)c2c(C(=O)N3CCCCCC3)c(C)n(C)c2C)c1', 'inactive'),
  ('COc1cc(NC(=O)COC(=O)c2ccc([N+](=O)[O-])s2)cc(OC)c1OC', 'inactive'),
  ('COc1ccc(/C=C/C(=O)Nc2cccnc2)cc1OC', 'inactive'),
  ('NS(=O)(=O)c1ccc(NC(=O)COC(=O)c2cc3ccccc3oc2=O)cc1', 'inactive'),
  ('Cc1nc2ccc(NC(=O)c3cccc(S(=O)(=O)N4CCOCC4)c3)cc2s1', 'inactive'),
  ('CC(C)CN1CC(C)C(=O)N(c2ccccc2)C1=S (stereo not drawn)', 'inactive'),
  ('c1ccc(CNc2ncnc3[nH]ncc23)cc1', 'inactive'),
  ('C=CCn1c(SCC(=O)NCCCO)nc2sc3c(c2c1=O)CCC3', 'inactive'),
  ('COc1cc(/C=C2\CCCc3c2nc2ccccc2c3C(=O)O)cc(Cl)c1O', 'inactive'),
  ('CC(OC(=O)c1c(F)cccc1F)C(=O)NCCC1=CCCCC1 (stereo not drawn)', 'inactive'),
  ('O=C(CN1C(=O)c2ccc([N+](=O)[O-])cc2C1=O)Nc1nnc(C2CC2)s1', 'inactive'),
  ('CN(C)CCCn1c(N)c(C#N)c2nc(C#N)c(C#N)nc21', 'active'),
  ('C#CCOCCOCCOCCNc1nc(N2CCN(C(=O)[C@H](CCCN=C(N)N)n3cc(C(N)[C@@H](C)CC)nn3)CC2)nc(N2CCN(C(=O)[C@H](CO)n3cc([C@@H](N)C(C)C)nn3)CC2)n1 (stereo partly drawn)', 'inactive'),
  ('COc1ccc(NS(=O)(=O)c2ccc(N3CCOCC3)c(NC(=O)/C=C/C(=O)O)c2)cc1', 'inactive'),
  ('COc1ccc(/C=C/C(=O)Nc2ccc(C34CC5CC(CC(O)(C5)C3)C4)cc2)cc1OC', 'active');
